I'd appreciate it if you could supply Ki values for the items below.
# assayed.target: Mu-type opioid receptor (Homo sapiens, UniProt P35372)
# Sequence (P35372 whole entry): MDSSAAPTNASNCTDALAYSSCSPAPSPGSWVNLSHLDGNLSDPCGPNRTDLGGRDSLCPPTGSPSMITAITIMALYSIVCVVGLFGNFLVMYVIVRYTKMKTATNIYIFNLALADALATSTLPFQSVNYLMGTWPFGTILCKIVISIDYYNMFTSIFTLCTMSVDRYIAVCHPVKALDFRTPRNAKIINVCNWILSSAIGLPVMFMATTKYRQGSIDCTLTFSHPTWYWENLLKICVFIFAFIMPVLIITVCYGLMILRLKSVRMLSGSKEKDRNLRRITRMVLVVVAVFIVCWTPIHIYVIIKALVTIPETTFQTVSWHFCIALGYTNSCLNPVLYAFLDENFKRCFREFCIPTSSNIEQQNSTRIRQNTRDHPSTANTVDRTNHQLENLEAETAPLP
# experimental.protocol: Ability to displace [3H]DAMGO from human recombinant Opioid receptor mu 1 in CHO cells
Numbers only here, please. The scale is nM.

Form field, Ki with Mu-type opioid receptor (Homo sapiens, UniProt P35372), item CCCCCCCNC(=O)c1ccc2[nH]c3c(c2c1)C[C@@]1(O)C2Cc4ccc(O)c5c4[C@@]1(CCN2CC1CC1)[C@H]3O5 : 61.9

Form field, Ki with Mu-type opioid receptor (Homo sapiens, UniProt P35372), item CCCCNC(=O)NCCc1ccc2[nH]c3c(c2c1)C[C@@]1(O)C2Cc4ccc(O)c5c4[C@@]1(CCN2CC1CC1)[C@H]3O5 : 4.8

Form field, Ki with Mu-type opioid receptor (Homo sapiens, UniProt P35372), item O=C(NCCc1ccccc1)c1ccc2[nH]c3c(c2c1)C[C@@]1(O)C2Cc4ccc(O)c5c4[C@@]1(CCN2CC1CC1)[C@H]3O5 : 23.5
